Molecular target: MJD CAG27 RNA
Assay: Isothermal titration calorimetry binding assay, unexpanded CAG RNA
Conditions: ITC; 0.7 mM P3V8 titrated into 0.5 µM MJD CAG27 RNA; one binding site model; mean ± S.E.M., at least 3 independent experiments
parameter.measured: Kd
# output: numeric value plus its unit

Query: Item Ac-DGKSKGIAYIEFK-NH2 [P3V8] with MJD CAG27 RNA - Kd?
Result: 2.19 µM

* * *

Experiment: Plasma pharmacokinetic study in SD rat
Conditions: Sprague-Dawley, rat, in vivo, iv, 3 umol/kg
Residues, ends and D or L forms follow the SMILES beside them. *: point of attachment. Palmitoyl = CCCCCCCCCCCCCCCC(=O)*
parameter.measured: level at time molar at 1.5 h (nM)
Write the answer as a number in nM, unit excluded.

Query: level at time molar at 1.5 h; subject: CCCCCCCCCCCCCCCC(=O)N[C@@H](CC(=O)O)C(=O)NCC(=O)N[C@@H](CCCCN)C(=O)N[C@@H](CO)C(=O)N[C@@H](CCCCN)C(=O)NCC(=O)N[C@H](C(=O)N[C@@H](C)C(=O)N[C@@H](Cc1ccc(O)cc1)C(=O)N[C@H](C(=O)N[C@@H](CCC(=O)O)C(=O)N[C@@H](Cc1ccccc1)C(=O)N[C@@H](CCCCN)C(N)=O)[C@@H](C)CC)[C@@H](C)CC [L1P3V8] (Palmitoyl-DGKSKGIAYIEFK-NH2)
Result: 190

* * *

Assay: Plasma pharmacokinetic study in SD rat
Conditions: Sprague-Dawley, rat, in vivo, iv, 3 μmol/kg
Residues, ends and D or L forms follow the SMILES beside them. *: point of attachment. Palmitoyl = CCCCCCCCCCCCCCCC(=O)*
parameter.measured: half-life (min)
Write the answer as a number in min, unit excluded.

Query: half-life; subject: CCCCCCCCCCCCCCCC(=O)N[C@@H](CC(=O)O)C(=O)NCC(=O)N[C@@H](CCCCN)C(=O)N[C@@H](CO)C(=O)N[C@@H](CCCCN)C(=O)NCC(=O)N[C@H](C(=O)N[C@@H](C)C(=O)N[C@@H](Cc1ccc(O)cc1)C(=O)N[C@H](C(=O)N[C@@H](CCC(=O)O)C(=O)N[C@@H](Cc1ccccc1)C(=O)N[C@@H](CCCCN)C(N)=O)[C@@H](C)CC)[C@@H](C)CC [L1P3V8] (Palmitoyl-DGKSKGIAYIEFK-NH2)
Result: 17

* * *

Assay: In vitro stability in rat brain homogenate
Type: in vitro ADME
Settings: male, Sprague-Dawley, rat, tissue homogenate; read-out: Percentage of remained
Residues, ends and D or L forms follow the SMILES beside them. *: point of attachment. Palmitoyl = CCCCCCCCCCCCCCCC(=O)*
parameter.measured: remaining at 3 h, 500 ng/mL

Query: remaining at 3 h, 500 ng/mL; subject: CCCCCCCCCCCCCCCC(=O)N[C@@H](CC(=O)O)C(=O)NCC(=O)N[C@@H](CCCCN)C(=O)N[C@@H](CO)C(=O)N[C@@H](CCCCN)C(=O)NCC(=O)N[C@H](C(=O)N[C@@H](C)C(=O)N[C@@H](Cc1ccc(O)cc1)C(=O)N[C@H](C(=O)N[C@@H](CCC(=O)O)C(=O)N[C@@H](Cc1ccccc1)C(=O)N[C@@H](CCCCN)C(N)=O)[C@@H](C)CC)[C@@H](C)CC [L1P3V8] (Palmitoyl-DGKSKGIAYIEFK-NH2)
Result: < 20%

* * *

Assay: In vitro stability in rat plasma
Assay type: in vitro ADME
Conditions: male, Sprague-Dawley; rat plasma, 1000 ng/mL, 37 °C, incubation 1 hr, LC/MS/MS; mean ± S.E.M. of 5; read-out: Percentage of remained
parameter.measured: remaining at 1 h, 1000 ng/mL (%)
Write the answer as a number in %, unit excluded.

Query: remaining at 1 h, 1000 ng/mL; subject: Ac-DGKSKGIAYIEFK-NH2 [P3V8]
Result: 8.6

* * *

Experiment: In vitro stability in rat plasma
Type: in vitro ADME
Settings: male, Sprague-Dawley, rat, plasma; read-out: Percentage of remained
Residues, ends and D or L forms follow the SMILES beside them. *: point of attachment. Palmitoyl = CCCCCCCCCCCCCCCC(=O)*
parameter.measured: remaining at 3 h, 2000 ng/mL (%)
Write the answer as a number in %, unit excluded.

Query: remaining at 3 h, 2000 ng/mL; subject: CCCCCCCCCCCCCCCC(=O)N[C@@H](CC(=O)O)C(=O)NCC(=O)N[C@@H](CCCCN)C(=O)N[C@@H](CO)C(=O)N[C@@H](CCCCN)C(=O)NCC(=O)N[C@H](C(=O)N[C@@H](C)C(=O)N[C@@H](Cc1ccc(O)cc1)C(=O)N[C@H](C(=O)N[C@@H](CCC(=O)O)C(=O)N[C@@H](Cc1ccccc1)C(=O)N[C@@H](CCCCN)C(N)=O)[C@@H](C)CC)[C@@H](C)CC [L1P3V8] (Palmitoyl-DGKSKGIAYIEFK-NH2)
Result: 86.9

* * *

Test: In vitro stability in rat brain homogenate
Type: in vitro ADME
Conditions: male, Sprague-Dawley, rat, rat brain homogenate; read-out: Percentage of remained
parameter.measured: remaining at 1 h, 500 ng/mL

Query: remaining at 1 h, 500 ng/mL; subject: Ac-DGKSKGIAYIEFK-NH2 [P3V8]
Result: < 2.5%

* * *

Experiment: Plasma pharmacokinetic study in SD rat
Details: Sprague-Dawley, rat, plasma, iv, 3 μmol/kg
parameter.measured: AUC(0-t) (µM·h)
Write the answer as a number in µM·h, unit excluded.

Query: AUC(0-t); subject: Ac-DGKSKGIAYIEFK-NH2 [P3V8]
Result: 0.0202

* * *

Assay: In vitro stability in rat plasma
Type: in vitro ADME
Details: male, Sprague-Dawley; rat plasma, 1000 ng/mL, 37 °C, incubation 3 hr, LC/MS/MS; mean ± S.E.M. of 5; LLOQ 12.5 ng/mL P3V8; read-out: Percentage of remained
parameter.measured: remaining at 3 h, 1000 ng/mL

Query: remaining at 3 h, 1000 ng/mL; subject: Ac-DGKSKGIAYIEFK-NH2 [P3V8]
Result: < 1.3%

* * *

Molecular target: expanded MJD CAG78 RNA
Assay: Isothermal titration calorimetry binding assay, expanded CAG RNA
Conditions: ITC, 25 °C, 20 mM MOPS pH 7.0, 300 mM NaCl; 0.7 mM peptide titrated into 0.5 µM MJD CAG78 RNA; one binding site model; mean ± S.E.M., at least 3 independent experiments
parameter.measured: Kd (nM)
Write the answer as a number in nM, unit excluded.

substance	readout.units	Kd
Ac-DGRSRGIAYIEFK-NH2 [P3V9]	nM	2340

Kindly consider the entry below.
Query: Kd; subject: Ac-DGKSKGIAYIEFK-NH2 [P3V8]
Result: 330

* * *

Test: In vitro stability in rat brain homogenate
Assay type: in vitro ADME
Conditions: male, Sprague-Dawley, rat, tissue homogenate; read-out: Percentage of remained
Residues, ends and D or L forms follow the SMILES beside them. *: point of attachment. Palmitoyl = CCCCCCCCCCCCCCCC(=O)*
parameter.measured: remaining at 1 h, 500 ng/mL

Query: remaining at 1 h, 500 ng/mL; subject: CCCCCCCCCCCCCCCC(=O)N[C@@H](CC(=O)O)C(=O)NCC(=O)N[C@@H](CCCCN)C(=O)N[C@@H](CO)C(=O)N[C@@H](CCCCN)C(=O)NCC(=O)N[C@H](C(=O)N[C@@H](C)C(=O)N[C@@H](Cc1ccc(O)cc1)C(=O)N[C@H](C(=O)N[C@@H](CCC(=O)O)C(=O)N[C@@H](Cc1ccccc1)C(=O)N[C@@H](CCCCN)C(N)=O)[C@@H](C)CC)[C@@H](C)CC [L1P3V8] (Palmitoyl-DGKSKGIAYIEFK-NH2)
Result: < 20%

* * *

Assay: Plasma pharmacokinetic study in SD rat
Conditions: Sprague-Dawley, rat, in vivo, iv, 3 μmol/kg
Residues, ends and D or L forms follow the SMILES beside them. *: point of attachment. Palmitoyl = CCCCCCCCCCCCCCCC(=O)*
parameter.measured: Cmax
# output: numeric value plus its unit

Query: Cmax; subject: CCCCCCCCCCCCCCCC(=O)N[C@@H](CC(=O)O)C(=O)NCC(=O)N[C@@H](CCCCN)C(=O)N[C@@H](CO)C(=O)N[C@@H](CCCCN)C(=O)NCC(=O)N[C@H](C(=O)N[C@@H](C)C(=O)N[C@@H](Cc1ccc(O)cc1)C(=O)N[C@H](C(=O)N[C@@H](CCC(=O)O)C(=O)N[C@@H](Cc1ccccc1)C(=O)N[C@@H](CCCCN)C(N)=O)[C@@H](C)CC)[C@@H](C)CC [L1P3V8] (Palmitoyl-DGKSKGIAYIEFK-NH2)
Result: 10.4 µM

* * *

Assay: In vitro stability in rat brain homogenate
Format: in vitro ADME
Details: male, Sprague-Dawley, tissue homogenate; rat brain homogenate, 1000 ng/mL, 37 °C, incubation 1 hr, LC/MS/MS; mean ± S.E.M. of 5; read-out: Percentage of remained
Residues, ends and D or L forms follow the SMILES beside them. *: point of attachment. Palmitoyl = CCCCCCCCCCCCCCCC(=O)*
parameter.measured: remaining at 1 h, 1000 ng/mL (%)
Write the answer as a number in %, unit excluded.

Query: remaining at 1 h, 1000 ng/mL; subject: CCCCCCCCCCCCCCCC(=O)N[C@@H](CC(=O)O)C(=O)NCC(=O)N[C@@H](CCCCN)C(=O)N[C@@H](CO)C(=O)N[C@@H](CCCCN)C(=O)NCC(=O)N[C@H](C(=O)N[C@@H](C)C(=O)N[C@@H](Cc1ccc(O)cc1)C(=O)N[C@H](C(=O)N[C@@H](CCC(=O)O)C(=O)N[C@@H](Cc1ccccc1)C(=O)N[C@@H](CCCCN)C(N)=O)[C@@H](C)CC)[C@@H](C)CC [L1P3V8] (Palmitoyl-DGKSKGIAYIEFK-NH2)
Result: 22.8
